target: serotoninergic 5-HT7 receptor (Homo sapiens, UniProt P34969)
Sequence (P34969 whole entry): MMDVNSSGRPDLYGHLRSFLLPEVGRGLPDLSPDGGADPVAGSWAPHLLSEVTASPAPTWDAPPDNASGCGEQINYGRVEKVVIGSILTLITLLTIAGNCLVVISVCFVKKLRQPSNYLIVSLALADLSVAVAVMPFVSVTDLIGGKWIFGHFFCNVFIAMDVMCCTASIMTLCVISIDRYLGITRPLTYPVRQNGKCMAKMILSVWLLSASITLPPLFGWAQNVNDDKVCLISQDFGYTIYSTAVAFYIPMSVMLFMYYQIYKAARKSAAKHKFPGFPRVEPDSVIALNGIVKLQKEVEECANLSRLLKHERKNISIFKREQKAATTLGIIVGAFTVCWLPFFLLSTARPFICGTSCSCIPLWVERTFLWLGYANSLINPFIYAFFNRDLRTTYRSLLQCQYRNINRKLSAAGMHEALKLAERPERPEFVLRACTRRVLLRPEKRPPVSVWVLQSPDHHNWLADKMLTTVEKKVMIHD
protocol: Binding assay 5-HT7 (h), [3H]LSD, CHO cells
Parameters: expressed in transfected cells; host or cells: CHO cells
testSettings: read-out: 5-HT7
readoutName: inhibition at 1 µM
# include the unit after the value

// solved cases for inhibition at 1 µM follow
chemicalString: O=S(=O)(NCCCN1CC=C(c2c[nH]c3ccc(F)cc23)CC1)c1cccc(O)c1
inhibition at 1 µM: 83%
--
chemicalString: Cn1ccc2cc(S(=O)(=O)NCCCN3CCC(c4noc5cc(F)ccc45)CC3)ccc21
inhibition at 1 µM: 95%
--
chemicalString: N#Cc1cccc(S(=O)(=O)NCCCCN2CCN(c3noc4ccccc34)CC2)c1
inhibition at 1 µM: 98%

Proceeding to the next molecule to report its inhibition at 1 µM.
INPUT: I'd like to know its inhibition at 1 µM. The molecule in question is O=S(=O)(NCCCN1CCN(c2nsc3ccccc23)CC1)c1cccc(Br)c1
OUTPUT: 99%
